- Tested on: CYP
- Assay method text: CYP inhibition
pIC50: −log10 of the molar value.
Measured parameter: pIC50

Exercise: Supply reported pIC50 belonging to this compound: CC(C)OC(=O)C(C)N[P@](=O)(OC[C@@]1(F)O[C@@H](n2ccc(=O)[nH]c2=O)[C@](C)(O)[C@@H]1O)Oc1ccccc1 (stereo in doubt)
Solution: < 4.59

---

As shown below, each of these compounds has a reported exposure increase caused by SMV value.
- Assay method text: Phase-1 drug-drug interaction study, plasma PK in healthy volunteers
- Condition info: DDI study results
Report the figure in × without appending any unit label.

// known answers, use as guide
Compound: COC(=O)N[C@H](C(=O)N1[C@H](c2nc3cc(-c4cc5ccc4CCc4ccc(c(-c6ccc7[nH]c([C@@H]8C[C@@H]9CCCC[C@@H]9N8C(=O)[C@@H](NC(=O)OC)C(C)C)nc7c6)c4)CC5)ccc3[nH]2)C[C@@H]2CCCC[C@@H]21)C(C)C
exposure increase caused by SMV (×): 1.6
--
Compound: C[C@H](NP(=O)(O)OC[C@@]1(F)O[C@@H](n2ccc(=O)[nH]c2=O)[C@](C)(O)[C@@H]1O)C(=O)O
exposure increase caused by SMV (×): 1.6

Exercise: Provide only the value of recorded exposure increase caused by SMV for CC(C)OC(=O)C(C)N[P@](=O)(OC[C@@]1(F)O[C@@H](n2ccc(=O)[nH]c2=O)[C@](C)(O)[C@@H]1O)Oc1ccccc1 (stereo in doubt)
Solution: 3
